# reported IC50 (Relative to Chimera); entries follow
molecular target: T1, human tau (human, UniProt P10636 2-60); assay: competition ELISA on plate-coated human tau against biotinylated HJ8.5; IC50 normalised to chimeric HJ8.5; column External
T1 construct: also called soluble human tau; human tau protein
T1 sequence (P10636 2-60 limits assumed): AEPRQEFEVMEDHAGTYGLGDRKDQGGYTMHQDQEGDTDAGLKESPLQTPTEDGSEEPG

BINDER: murine anti-tau antibody HJ8.5 (antibody, V domains shown, Murine monoclonal antibody; also called parent antibody; murine parent) VH: EVKVEESGGGLVQPGGSMKLSCVVSGFTFSNYWVNWVRQSPEKGLEWVAQIRLKSDNYATHYEESVKGRFTISRDDSKSSVYLQMNNLRAEDSGIYYCTNWEDYWGQGTTLTVSS VL: DIVLTQSPASLAVSLGQRATISCRASQSVSTSRYSYIHWYQQKPGQPPKLLIKYASNLESGVPARFSGSGSGTDFTLNIHPLEEEDAATYYCHHSWEIPLTFGAGTKLELK
VALUE: 1.07 relative to Chimera
//
BINDER: VH2/VK2 humanized anti-tau antibody (antibody, human IgG4 S228P, kappa, V domains shown, Humanized variant of HJ8.5) VH: EVKVVESGGGLVQPGGSLKLSCVVSGFTFSNYWVNWVRQAPGKGLEWVAQIRLKSDNYATHYEESVKGRFTISRDDSKSSVYLQMNSLRAEDTGIYYCTNWEDYWGQGTTVTVSS VL: DIVLTQSPDSLAVSLGERATISCRASQSVSTSRYSYIHWYQQKPGQPPKLLIKYASNLESGVPSRFSGSGSGTDFTLNIHPLEPEDFATYYCHHSWEIPLTFGQGTKLEIKR
VALUE: 1.12 relative to Chimera
//
BINDER: VH1/VK1 (antibody, human IgG4 S228P, kappa, V domains shown, humanized HJ8.5 variant, combination of VH1 and VK1) VH: EVKVVESGGGLVQPGGSMKLSCVVSGFTFSNYWVNWVRQAPGKGLEWVAQIRLKSDNYATHYEESVKGRFTISRDDSKSSVYLQMNNLRAEDSGIYYCTNWEDYWGQGTTVTVSS VL: DIVLTQSPDSLAVSLGERATISCRASQSVSTSRYSYIHWYQQKPGQPPKLLIKYASNLESGVPSRFSGSGSGTDFTLNIHPLEEEDFATYYCHHSWEIPLTFGQGTKLEIKR
VALUE: 0.84 relative to Chimera

The measured IC50 (Relative to Chimera) associated with VH3/VK2 humanized anti-tau antibody (antibody, human IgG4 S228P, kappa, V domains shown, Humanized variant of HJ8.5) VH: EVQVVESGGGLVQPGGSLKLSCVVSGFTFSNYWVNWVRQAPGKGLEWVAQIRLKSDNYATHYEESVKGRFTISRDDSKNSVYLQMNSLRAEDTAIYYCTNWEDYWGQGTTVTVSS VL: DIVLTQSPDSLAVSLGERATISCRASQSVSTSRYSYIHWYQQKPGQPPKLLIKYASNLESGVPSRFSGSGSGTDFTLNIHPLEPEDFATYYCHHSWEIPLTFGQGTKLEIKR reads 0.94 relative to Chimera

The measured IC50 (Relative to Chimera) associated with VH2/VK1 (antibody, human IgG4 S228P, kappa, V domains shown, humanized HJ8.5 variant, combination of VH2 and VK1) VH: EVKVVESGGGLVQPGGSLKLSCVVSGFTFSNYWVNWVRQAPGKGLEWVAQIRLKSDNYATHYEESVKGRFTISRDDSKSSVYLQMNSLRAEDTGIYYCTNWEDYWGQGTTVTVSS VL: DIVLTQSPDSLAVSLGERATISCRASQSVSTSRYSYIHWYQQKPGQPPKLLIKYASNLESGVPSRFSGSGSGTDFTLNIHPLEEEDFATYYCHHSWEIPLTFGQGTKLEIKR reads 1.02 relative to Chimera

The measured IC50 (Relative to Chimera) associated with VH1/VK2 humanized anti-tau antibody (C2N-8E12) (antibody, human IgG4 S228P, kappa, V domains shown, Humanized recombinant IgG4 with S241P hinge mutation, human kappa light chain; also called C2N-8EI2) VH: EVKVVESGGGLVQPGGSMKLSCVVSGFTFSNYWVNWVRQAPGKGLEWVAQIRLKSDNYATHYEESVKGRFTISRDDSKSSVYLQMNNLRAEDSGIYYCTNWEDYWGQGTTVTVSS VL: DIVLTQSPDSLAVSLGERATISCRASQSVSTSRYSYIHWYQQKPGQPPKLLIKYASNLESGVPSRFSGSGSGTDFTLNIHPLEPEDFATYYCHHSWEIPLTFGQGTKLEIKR reads 0.78 relative to Chimera

The measured IC50 (Relative to Chimera) associated with VH4/VK3 (antibody, human IgG4 S228P, kappa, V domains shown, humanized HJ8.5 variant, combination of VH4 and VK3) VH: EVQLVESGGGLVQPGGSLKLSCVVSGFTFSNYWVNWVRQAPGKGLEWVAQIRLKSDNYATHYEESVKGRFTISRDDSKNSLYLQMNSLRAEDTAIYYCTNWEDYWGQGTTVTVSS VL: DIVLTQSPDSLAVSLGERATISCRASQSVSTSRYSYIHWYQQKPGQPPKLLIKYASNLESGVPSRFSGSGSGTDFTLTISSLQPEDFATYYCHHSWEIPLTFGQGTKLEIKR reads 1.31 relative to Chimera

The measured IC50 (Relative to Chimera) associated with VH3/VK1 (antibody, human IgG4 S228P, kappa, V domains shown, humanized HJ8.5 variant, combination of VH3 and VK1) VH: EVQVVESGGGLVQPGGSLKLSCVVSGFTFSNYWVNWVRQAPGKGLEWVAQIRLKSDNYATHYEESVKGRFTISRDDSKNSVYLQMNSLRAEDTAIYYCTNWEDYWGQGTTVTVSS VL: DIVLTQSPDSLAVSLGERATISCRASQSVSTSRYSYIHWYQQKPGQPPKLLIKYASNLESGVPSRFSGSGSGTDFTLNIHPLEEEDFATYYCHHSWEIPLTFGQGTKLEIKR reads 1.04 relative to Chimera
